assayReadout: melting point

| molecule | experimentalResult |
| --- | --- |
| CCOC(=O)c1ncc2[nH]c3ccc(C(=S)N4CCCCC4)cc3c2c1C | 225 to 230 °C |
| CSC1NC(=O)N(C2CCCCC2)C(=O)N1C (centres undefined) | 135 to 137 °C |
| Cc1nc(N)sc1C(=O)OC(C)(C)C | 167 to 170 °C |
| Cc1cc(N2CCC3(CC2)OCCO3)c2cccc(Br)c2n1 | 156 to 158 °C |
| Nc1sccc1C(=O)c1ccc(F)cc1 | 178 °C |
| FC(F)(F)c1cccc(Nc2nccc(-c3ccncc3)n2)c1 | 197 to 198 °C |
| CSc1cccc(C(=C2CN(C(c3ccccc3)c3ccccc3)C2)S(C)(=O)=O)c1 | 146 °C |
| Nc1ncnc2c1ncn2CC(/C=C/P(=O)(O)O)CO (centres undefined) | > 300 °C |
| Cn1c2cc(Cl)ccc2c2c(C(=O)O)nc(-c3ccccc3)nc21 | 208 to 209 °C |
| CN1C(=O)N(CC(COc2ccc(-c3ccc(S(N)(=O)=O)cc3)cc2)N(O)C=O)C(=O)C1(C)C (centres undefined) | 203 to 205 °C |
| O=C(CN1CCOCC1)N1CCN(Cc2ccc3c(c2)-c2[nH]nc(-c4ccsc4)c2C3)CC1 | 240 to 242 °C |
| COc1ccc(C(=O)Oc2ccc(COc3ccc4c(c3)CCC(CN(C)C)C4)cc2)cc1 (centres undefined) | 119 to 121 °C |
| CCNC(=O)c1ccc(-c2ccc3nnn(Cc4ccc5ncccc5c4)c3n2)cc1Cl | 187 to 190 °C |
| O=C(Nc1ccsc1)c1ccccc1 | 155 to 156 °C |
| O=C(Nc1ccccc1S(=O)(=O)c1ccccc1)N[C@@H](Cc1ccc(OC(=O)c2c(Cl)cncc2Cl)cc1)C(=O)O | 186 °C |
| Cc1cc(NC(=O)C(C)(C)C)n(C)n1 | 86 to 88 °C |
| CCOC(=O)c1nc(-c2ccc(OCc3ccccc3)cc2)[nH]c1-c1ccc(C)cc1 | 168 to 170 °C |
| O=Cc1c[nH]cc1-c1ccccc1Cl | 147 to 148 °C |
| O=C(O)C1=Cc2cc(Cl)c(Oc3ccc(C(=O)O)cc3Cl)cc2OC1C(F)(F)F (centres undefined) | > 300 °C |

====

| molecule | melting point |
| --- | --- |
| CN1CCC(CC(=O)N2c3ccccc3NC(=O)c3ccccc32)CC1 | > 95 °C |
| Nc1ccc(C2CCNCC2)cc1 | 85 to 87 °C |
| CC1CN(Cc2ccccc2)c2c3c(nc4cccc(c24)O1)CCCC3 (stereo not given) | 152 to 153 °C |
| Cc1cccc(-c2[nH]c(C(C)C)nc2-c2ccc(F)c(-c3ccc(S(N)(=O)=O)cc3)c2)n1 | 245 to 246 °C |
| O=C(Nc1nnn(CC2CC2)n1)C(c1ccccc1)c1ccccc1 | 147 to 148 °C |

====

Quick reference: melting point of the listed items.

| compound | melting point |
| --- | --- |
| CC(C)c1ccc(C(=O)Cc2ccccc2C(F)(F)F)c(C(C)C)c1OS(N)(=O)=O | 144 to 149 °C |
| O=c1oc2c(c(O)c1C(C1CC1)C1CC1)CCCCCC2Cc1ccccc1 (stereo not given) | 94 to 97 °C |
| O=C(O)c1ccc(-c2noc(-c3ccc(C(F)(F)F)cc3)n2)cc1 | 286 to 287 °C |
| CCOC(=O)c1c(C(F)(F)F)nc(C(F)F)c(C(=O)OC)c1N(C)C | 80 to 81 °C |
| CCOC(=NO)C(=O)C1=Nc2ccccc2C(=O)N(C)C1 | 173 to 174 °C |
| CN(C)CCCC1(c2ccc(OC3CCCCO3)cc2)Sc2ccccc2N(C)C1=O (stereo not given) | 98.5 to 101 °C |
| Cc1c(C(=O)OCc2ccccc2)sc(NC(=O)c2cccnc2)c1C(=O)OC(C)(C)C | 165 to 166 °C |
| CCOc1nc2c(cnn2CC)nc1C#N | 73 to 74 °C |
| CCc1nc(/C=C/c2cn(-c3ccccc3)nc2OCc2ccc(OCc3nc(-c4cccc(C(=O)NS(C)(=O)=O)c4)oc3C)c(OC)c2)cs1 | 211 to 213 °C |
| CC(C)=NN=c1scc(C)n1C | 139 to 140 °C |

====

assayReadout: melting point

| compound | assayReadout | experimentalResult |
| --- | --- | --- |
| O=[N+]([O-])c1cn(-c2cccnc2)nc1Cl | melting point | 139 to 142 °C |
| Cc1ccc(CS(=O)c2c(O)cc(C)oc2=O)cc1 (configuration not stated) | melting point | 156 to 158 °C |
| NS(=O)(=O)c1ccc(-c2cc(-c3c[nH]nc3-c3cccc(C4CC4)n3)ccc2F)cc1 | melting point | 225 to 226 °C |
| NC(=O)N1CC(Oc2ccc(C(F)(F)F)cc2Cl)C1 | melting point | 156 to 159 °C |
| C[C@]1(COc2ccc3nc(N4CCC(Cc5ccc(OC(F)(F)F)cc5)CC4)ccc3c2)Cn2cc([N+](=O)[O-])nc2O1 | melting point | 185 to 186 °C |
| Cc1ccc(S(F)(F)(F)(F)F)cc1[N+](=O)[O-] | melting point | 29 to 30 °C |
| CC(=O)N1c2ccccc2C[C@H]1C#N | melting point | 134 to 135 °C |

====

assayReadout: melting point

| compound | assayReadout | experimentalResult |
| --- | --- | --- |
| COCc1ccccc1-c1ccc(C(=O)O)cc1 | melting point | 164 to 166 °C |
| Cc1cc(C)c2c(c1Br)CCC2=O | melting point | 103 °C |
| CC1(C)c2cc(C#N)ccc2OC1N1CCOCC1 (centres undefined) | melting point | 105 to 107 °C |
| O=S1(=O)N[C@@H](c2ccccc2)c2ccccc21 | melting point | 139 °C |

====

Quick list: melting point per entry.
assayReadout: melting point

| compound | assayReadout | experimentalResult |
| --- | --- | --- |
| O=C1CCC(N2C(=O)c3cccc(OCc4ccc(CN5CCN(S(=O)(=O)C(F)(F)F)CC5)cc4)c3C2=O)C(=O)N1 (configuration not stated) | melting point | 229 to 231 °C |
| CC1(C)CCC(C)(C)c2cc(CC#Cc3ccc(C(=O)O)c(O)c3)ccc21 | melting point | 178 to 180 °C |
| NC(=NO)c1ccncc1 | melting point | 203 to 205 °C |
| O=C(CF)Nc1ccccc1 | melting point | 77 to 78.5 °C |
| N#CC(C#N)=C1N(CCCN2CCCCC2)CCN1C1CCN(CCF)CC1 | melting point | 56 to 57 °C |
| COc1cccc(-c2nccc3[nH]c(=O)c(-c4noc(C)n4)cc23)c1 | melting point | 281 to 282 °C |
| Cc1cccc(C)c1-n1cnc(NCC(F)(F)F)nc1=O | melting point | 212 to 213 °C |

====

melting point overview

| compound | melting point |
| --- | --- |
| COc1ccc(C(=O)Nc2ccccc2)cc1NCc1cccc(F)c1 | 137 to 140 °C |
| Oc1cc2c(cc1O)OCC(c1cccc(C(F)(F)F)c1)C2 (stereo not given) | 139 to 141 °C |
| CCOc1ccc(-n2nc(Sc3ccc(Cl)cc3)c(C)c(C#N)c2=O)cc1 | 138 to 145 °C |
| CSc1nc(NC2CC2)nc(Cl)c1C#N | 139 to 141 °C |
| CCNC(=O)CCCNC(=O)OC(C)(C)C | 82 to 83 °C |
| N#CC1(N2C(=O)C3=C(CCCC3)C2=O)CCCCC1 | 55.5 to 56.5 °C |
| O=C(C1CC1)N1CCCC1Cc1ccc(Cl)cc1 (stereo not given) | 62 to 64 °C |
| O=C(Nc1ccc(CN2C(=O)[C@H]3CCC[C@H]3N(C(=O)CN3C(=O)c4ccccc4C3=O)c3ccccc32)cc1)c1ccccc1F (relative stereo) | 238 to 240 °C |
| CCCCOc1c(CNC(=O)OC(C)(C)C)n(CC(C)C)c(=O)c2ccc(C(=O)N(C)OC)cc12 | 142 to 143 °C |
| CCCCc1ncc[nH]1 | 35 to 37 °C |

====

assayReadout: melting point

| molecule | assayReadout | experimentalResult |
| --- | --- | --- |
| CCN1C(=O)CCCc2cc(Nc3ncc(Cl)c(Nc4ccccc4S(=O)(=O)N(C)C)n3)c(OC)cc21 | melting point | 147 to 153 °C |
| CC(C)OCc1cc2ccccc2oc1=Nc1ccccc1 | melting point | 107 to 108 °C |
| CC(=O)c1ccc2oc3nc(N)c(C(=O)O)cc3c(=O)c2c1 | melting point | > 300 °C |
| CCCCCCN(C(=O)Cc1ccccc1)c1nnc(C)s1 | melting point | 90 °C |
| CC1=NC2CN=C(c3ccccc3F)c3cc(Cl)ccc3C2C(=O)N1 (configuration not stated) | melting point | 150 to 165 °C |
| Cn1cc(-c2cc(-c3cnc4[nH]ccc4c3)ccn2)n(-c2ccc(C(C)(C)C#N)cc2)c1=O | melting point | 248 °C |
| CS(=O)(=O)c1ccc(-c2nc(C(F)(F)F)nc(N=[N+]=[N-])c2-c2ccc(Cl)cc2)cc1 | melting point | 317 to 320 °C |
| C[Si](C)(C)ON1C(=O)CCC1=O | melting point | 55 to 57 °C |
| Cc1ccc(N)c(C(O)(C(F)(F)F)C(F)(F)F)c1 | melting point | 110 °C |
| CCC(C)COC(=O)Cn1cccc1-c1nc(-c2ccc(OC)cc2)c(-c2ccc(OC)cc2)s1 (configuration not stated) | melting point | 81.5 to 84.5 °C |
| CCOC(=O)c1cn(-c2ccc3ncccc3c2)cn1 | melting point | 90 to 94 °C |
| O=C(NC1CNC1=O)OCc1ccccc1 (configuration not stated) | melting point | 160 to 161 °C |
